Listing of entries alongside the reported GI50.
Tested on: SNB-19
Experiment: NCI tumour cell line growth inhibition, 48 h
The source made the active and inactive calls. Rule as the data show it: active = GI50 up to about 1.1 µM and inactive = higher.

>>> readout_value("Cc1c(Cl)ccc2c1NC(=O)C2(O)CC(=O)c1ccc(Cl)cc1 (stereo unspecified)")
"97.3 µM (inactive)"
>>> readout_value("Cn1c2c(c3ccccc31)CC1c3c(c4ccccc4n3C)CC21 (stereo unspecified)")
"> 100 µM (inactive)"
>>> readout_value("O=C1Nc2ccc(Br)cc2/C1=N/c1ccc(Cl)cc1")
"28 µM (inactive)"

GET /value?item= C[C@]12CCC[C@H](Cl)C1(O)C[C@H](C(=O)O)CC2 (stereo partly specified) &field=GI50 returns > 100 µM (inactive)

GET /value?item= Cc1ccc(NC(=O)C2C(=O)N(c3ccc(C)c(C)c3)C(=O)/C2=N\NC(N)=S)cc1C (stereo unspecified) &field=GI50 returns 29.6 µM (inactive)

GET /value?item= NNC1=N/C(=C\c2ccco2)C(=O)N1 &field=GI50 returns > 100 µM (inactive)
